Target: T1, KDR (kinase domain receptor, VEGFR-2) expressed on cells (UniProt P35968 20-1356, limits assumed)
T1 construct: whole, on cells; The same molecule is used for KDR on CHO-KDR cells and for VEGF-R2 on HUV-EC cells; the cells are named under assay; also called KDR/Flk-1; VR2
T1 sequence (P35968 20-1356 limits assumed): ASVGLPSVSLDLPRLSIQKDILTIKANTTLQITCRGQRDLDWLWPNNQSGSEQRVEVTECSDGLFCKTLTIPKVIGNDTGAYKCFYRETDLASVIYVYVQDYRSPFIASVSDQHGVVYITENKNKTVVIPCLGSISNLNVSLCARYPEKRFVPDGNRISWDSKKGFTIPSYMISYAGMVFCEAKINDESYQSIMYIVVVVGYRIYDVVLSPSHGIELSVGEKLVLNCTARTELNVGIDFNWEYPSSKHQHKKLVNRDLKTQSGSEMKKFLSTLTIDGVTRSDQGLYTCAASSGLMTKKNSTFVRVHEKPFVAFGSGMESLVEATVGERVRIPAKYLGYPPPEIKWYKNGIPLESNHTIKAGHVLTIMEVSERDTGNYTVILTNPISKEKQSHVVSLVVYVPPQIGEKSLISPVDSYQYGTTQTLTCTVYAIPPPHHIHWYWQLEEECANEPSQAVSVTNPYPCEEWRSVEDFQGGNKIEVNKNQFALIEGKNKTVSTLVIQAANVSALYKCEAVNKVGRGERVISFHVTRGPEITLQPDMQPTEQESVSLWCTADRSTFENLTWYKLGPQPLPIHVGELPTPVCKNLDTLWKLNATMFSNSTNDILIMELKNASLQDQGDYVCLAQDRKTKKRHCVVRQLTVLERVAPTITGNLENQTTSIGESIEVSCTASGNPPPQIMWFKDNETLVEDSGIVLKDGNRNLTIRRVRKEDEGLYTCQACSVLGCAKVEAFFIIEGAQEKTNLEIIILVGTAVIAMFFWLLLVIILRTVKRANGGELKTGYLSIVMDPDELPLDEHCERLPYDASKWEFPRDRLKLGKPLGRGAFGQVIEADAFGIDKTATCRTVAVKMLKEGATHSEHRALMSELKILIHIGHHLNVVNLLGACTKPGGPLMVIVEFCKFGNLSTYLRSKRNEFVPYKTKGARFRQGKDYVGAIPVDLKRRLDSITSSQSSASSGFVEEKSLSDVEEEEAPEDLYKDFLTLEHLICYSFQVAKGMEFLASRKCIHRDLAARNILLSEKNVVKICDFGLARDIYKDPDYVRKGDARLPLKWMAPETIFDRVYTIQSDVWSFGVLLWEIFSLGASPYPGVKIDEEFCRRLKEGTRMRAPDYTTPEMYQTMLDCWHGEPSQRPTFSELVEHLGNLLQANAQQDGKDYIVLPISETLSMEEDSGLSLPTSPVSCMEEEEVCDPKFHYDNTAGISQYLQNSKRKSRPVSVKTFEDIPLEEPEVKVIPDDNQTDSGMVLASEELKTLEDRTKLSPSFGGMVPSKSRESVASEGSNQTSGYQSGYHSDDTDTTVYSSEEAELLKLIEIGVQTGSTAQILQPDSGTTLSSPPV
Experiment: displacement of 125I-VEGF165 from CHO-KDR cells, curve fitting (CI50)
Doc: threshold 30 µM (exclusive). Items with IC50 beneath it return criterion met; others return criterion not met.

> print(dat)
                                     binder     class.name
1  ATWLPAR (Ala scan analogue of ATWLPPR (V1)) [V1 analogue A6]  criterion met

Lab note: IC50 threshold 30 µM. Does this binder come in strictly under it? ATWLPPR (Synthetic peptide (Neosystem); also called V1 peptide) [synthetic peptide V1 (ATWLPPR)]
criterion met

Next entry: ATWAPPR (Ala scan analogue of ATWLPPR (V1)) [V1 analogue A4]
criterion not met

Next entry: ATALPPR (Ala scan analogue of ATWLPPR (V1)) [V1 analogue A3]
criterion met
